Target: Tyrosine-protein phosphatase non-receptor type 1 (Homo sapiens)
Sequence (P18031 whole entry): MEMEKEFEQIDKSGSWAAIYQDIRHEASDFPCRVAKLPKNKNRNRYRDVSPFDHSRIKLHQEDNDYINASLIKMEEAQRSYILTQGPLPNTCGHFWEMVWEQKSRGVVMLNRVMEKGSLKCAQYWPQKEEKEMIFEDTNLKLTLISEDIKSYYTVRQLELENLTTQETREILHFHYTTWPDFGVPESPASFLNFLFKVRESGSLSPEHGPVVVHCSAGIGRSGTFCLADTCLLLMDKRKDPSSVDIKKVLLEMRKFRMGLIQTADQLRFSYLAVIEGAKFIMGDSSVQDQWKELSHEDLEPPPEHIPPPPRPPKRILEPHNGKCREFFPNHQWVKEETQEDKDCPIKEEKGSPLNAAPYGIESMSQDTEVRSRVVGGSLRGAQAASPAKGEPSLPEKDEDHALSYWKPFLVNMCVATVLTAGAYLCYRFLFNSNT
Below, Ki values reported for Tyrosine-protein phosphatase non-receptor type 1 (Homo sapiens) across several publications.
Endpoint Name: Ki (µM)

Observe how each entry below is paired with its result.
CCCCCNC(=O)[C@H](Cc1ccc(OC(C(=O)O)C(=O)O)cc1)NC(=O)[C@H](C)NC(=O)OC(C)(C)C
14
O=C(CSc1nc2cc(Oc3cccc4ccccc34)ccc2[nH]1)Nc1ccccc1C(=O)O
23.3
FC(F)(c1cccc(-c2ccccc2)c1)c1nnn[nH]1
98

(1) CCc1cc(CC(NC(C)=O)C(=O)NCCCCC(=O)N[C@@H](CSCc2ccccc2)C(=O)O)ccc1N(C(=O)C(=O)O)c1ccccc1C(=O)O (some centres not stated)
(2) C=CCOC(=O)N[C@H](Cc1ccc(N(C(=O)C(=O)O)c2ccccc2C(=O)O)cc1)C(=O)N[C@H](C)c1ccc([N+](=O)[O-])cc1
From the recorded data, which exceeds the other in Ki: 1 or 2 ? Your choice should be expressed through its label.
2
(2: 3.98 µM, 1: 0.631 µM)

(P) O=C(O)C(=O)N(c1ccccc1C(=O)O)c1cc([N+](=O)[O-])cc2ccccc12
(Q) CN(C)c1cccc2c(S(=O)(=O)N(C)CC(=O)N(Cc3ccc(C4CCCCC4)cc3)c3ccc(C(=O)O)c(O)c3)cccc12
(R) CC(=O)N1CCC(C(=O)Nc2cccc(-c3cc(C(=O)O)no3)c2)CC1
(S) CCc1cc(CC(NC(C)=O)C(=O)NCCCCOc2cc(Cl)cc(O)c2C(=O)OC)ccc1N(C(=O)C(=O)O)c1ccccc1C(=O)O (configuration not stated)
(T) O=C(CSc1nc2cc(Oc3ccc4ccccc4c3)ccc2[nH]1)Nc1ccc(C(=O)O)cc1
# rank_down: sort by Ki, max first Form field (ranking): labels in requested order.
R, T, P, Q, S

(1) COC(=O)c1c(O)cccc1OCCCCNC(=O)C(Cc1ccc(OCC(=O)O)c(O)c1)NC(C)=O (configuration not stated)
(2) Cc1c(N2CC(=O)NS2(=O)=O)csc1-c1cccc(NC2CCCCC2)c1
# returns the entry with the larger Ki; inputs 1 and 2 # respond with the chosen item's label
2

---

Assay read-out Ki on Tyrosine-protein phosphatase non-receptor type 1 (Homo sapiens, UniProt P18031); records merged from the literature.
Biological target: Tyrosine-protein phosphatase non-receptor type 1 (Homo sapiens, UniProt P18031)
Sequence (P18031 whole entry): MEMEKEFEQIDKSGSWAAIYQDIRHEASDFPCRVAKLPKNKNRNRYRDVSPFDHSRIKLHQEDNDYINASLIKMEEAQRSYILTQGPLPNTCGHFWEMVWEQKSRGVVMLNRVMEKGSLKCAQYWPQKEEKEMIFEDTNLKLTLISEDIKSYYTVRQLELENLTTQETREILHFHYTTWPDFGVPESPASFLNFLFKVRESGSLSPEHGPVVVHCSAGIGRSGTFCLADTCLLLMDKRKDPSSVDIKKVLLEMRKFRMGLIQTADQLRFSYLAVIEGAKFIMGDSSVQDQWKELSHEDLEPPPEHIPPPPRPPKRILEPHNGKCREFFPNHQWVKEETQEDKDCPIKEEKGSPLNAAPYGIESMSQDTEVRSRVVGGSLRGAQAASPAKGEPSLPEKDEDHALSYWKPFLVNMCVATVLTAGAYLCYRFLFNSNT
Endpoint Name: Ki (µM)

Study these solved cases before continuing.
COC(=O)c1c(O)cccc1OCCCCNC(=O)[C@H](Cc1ccc(OCC(=O)O)c(C(=O)O)c1)NC(C)=O
9.4
CC(=O)N[C@@H](Cc1ccccc1)C(=O)N[C@@H](Cc1ccc([C@@H]2CC(=O)NS2(=O)=O)cc1)C(N)=O
0.18

(1) CCc1cc(CC(NC(C)=O)C(=O)NCCCCC(=O)NCCc2ccccc2)ccc1N(C(=O)C(=O)O)c1ccccc1C(=O)O (configuration not stated)
(2) CC(=O)NC(Cc1ccc(N(C(=O)C(=O)O)c2ccccc2C(=O)O)c(CCO)c1)C(=O)NCc1ccc([N+](=O)[O-])cc1 (configuration not stated)
(3) COC(=O)c1c(O)cccc1OC/C=C/c1ccc(F)c(-c2cc(C(=O)O)no2)c1
(4) CCCCC(NC1=NS(=O)(=O)c2ccccc21)C(=O)NCC(NC(=O)CC1(NC(=O)C(C2CC2)n2cc(CC3CCCCC3)nn2)CCCCC1)C(N)=O (configuration not stated)
(5) CCCCCN1C(=O)C(=O)N(C(=O)NC(C)C)[C@H](Cc2ccc(Nc3ccccc3C(=O)O)c(CCC(N)=O)c2)C1=O
hey, can you rank those compounds up there by Ki? biggest number first please // ordering of labels required in reply
4, 3, 1, 5, 2
(4: 16.8 µM, 3: 7 µM, 1: 3.4 µM, 5: 2 µM, 2: 0.251 µM)
